- System name: Calcium/calmodulin-dependent protein kinase type II subunit alpha (Homo sapiens) (UniProt Q9UQM7);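 further: reported values are averages (mean inhibition of CAMK2A)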
- Sequence (Q9UQM7 whole entry): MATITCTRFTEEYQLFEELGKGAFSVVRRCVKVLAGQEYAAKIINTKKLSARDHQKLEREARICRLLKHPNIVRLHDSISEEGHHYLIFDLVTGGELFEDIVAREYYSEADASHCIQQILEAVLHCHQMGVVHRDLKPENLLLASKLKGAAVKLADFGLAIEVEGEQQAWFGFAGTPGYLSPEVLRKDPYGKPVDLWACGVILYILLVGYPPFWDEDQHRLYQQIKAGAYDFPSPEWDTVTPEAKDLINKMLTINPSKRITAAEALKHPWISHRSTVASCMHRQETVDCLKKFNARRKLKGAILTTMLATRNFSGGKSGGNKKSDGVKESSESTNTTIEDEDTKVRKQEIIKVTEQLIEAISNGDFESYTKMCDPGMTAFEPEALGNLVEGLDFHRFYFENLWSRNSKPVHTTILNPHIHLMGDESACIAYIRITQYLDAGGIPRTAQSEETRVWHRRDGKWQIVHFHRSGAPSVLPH
- Measurement context: at 0.1 µM
inhibition overview
All answers are understood in %, so give the number only.

Some molecules with recorded inhibition:
[ask] // lookup inhibition for `COC(=O)Nc1nc2cc(Oc3cccc(NC(=O)Nc4cc(C(F)(F)F)ccc4F)c3)ccc2[nH]1`
[reply] 0.56

[ask] Bench note: what inhibition did `Cc1cc(O)cc(C)c1/C=C/c1cncc(-c2nn[nH]n2)c1` show?
[reply] 6.31

[ask] Give the measured inhibition of `[O-][S+]1CCN(Cc2ccc(-c3ccc4ncnc(Nc5ccc(OCc6ccccc6)c(F)c5)c4c3)o2)CC1` .
[reply] 1.36

[ask] Entry under review: `COc1ccc(COc2ccc(Cc3cnc(N)nc3N)cc2OC)cc1` . Reported inhibition?
[reply] 3.64

[ask] Report inhibition for `CS(=O)(=O)CCNCc1ccc(-c2ccc3ncnc(Nc4ccc(OCc5cccc(F)c5)c(C(F)(F)F)c4)c3c2)o1` please.
[reply] 3.67

Further cases:
[ask] Item under review: `CCn1c(-c2nonc2N)nc2c(C#CC(C)(C)O)nc(OC[C@@H](N)c3ccccc3)cc21` . Reported inhibition?
[reply] -2.45

[ask] Please look up its inhibition: `CS(=O)(=O)CCNCc1nc(-c2ccc3ncnc(Nc4ccc(F)c(Cl)c4)c3c2)cs1`
[reply] 5.16

[ask] Please report the recorded inhibition for `O=C1NC(=O)C(c2ccc(Cl)cc2)=C1Nc1ccc(Cl)c(C(=O)O)c1` .
[reply] -2.83

[ask] I am curious: what inhibition value has been reported for `NCc1ccc(-c2nc(-c3ccc(Cl)c(O)c3)c(-c3ccncc3)[nH]2)cc1` ?
[reply] 0.76

[ask] // inhibition lookup, key: `Cc1ccc(C(=O)NC2CCCCC2)cc1-c1ccc(C(=O)NCC2CC2)cc1`
[reply] 4.8

[ask] // query inhibition value for entry `CCn1c(-c2nonc2N)nc2c(N3CCCC3)nccc21`
[reply] -1.53

---

- System name: ALK tyrosine kinase receptor (Homo sapiens) (UniProt Q9UM73);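 further: values are mean percent inhibition of ALK, screened as part of the GSK PKIS panel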
- Sequence (Q9UM73 19-1620 limits assumed): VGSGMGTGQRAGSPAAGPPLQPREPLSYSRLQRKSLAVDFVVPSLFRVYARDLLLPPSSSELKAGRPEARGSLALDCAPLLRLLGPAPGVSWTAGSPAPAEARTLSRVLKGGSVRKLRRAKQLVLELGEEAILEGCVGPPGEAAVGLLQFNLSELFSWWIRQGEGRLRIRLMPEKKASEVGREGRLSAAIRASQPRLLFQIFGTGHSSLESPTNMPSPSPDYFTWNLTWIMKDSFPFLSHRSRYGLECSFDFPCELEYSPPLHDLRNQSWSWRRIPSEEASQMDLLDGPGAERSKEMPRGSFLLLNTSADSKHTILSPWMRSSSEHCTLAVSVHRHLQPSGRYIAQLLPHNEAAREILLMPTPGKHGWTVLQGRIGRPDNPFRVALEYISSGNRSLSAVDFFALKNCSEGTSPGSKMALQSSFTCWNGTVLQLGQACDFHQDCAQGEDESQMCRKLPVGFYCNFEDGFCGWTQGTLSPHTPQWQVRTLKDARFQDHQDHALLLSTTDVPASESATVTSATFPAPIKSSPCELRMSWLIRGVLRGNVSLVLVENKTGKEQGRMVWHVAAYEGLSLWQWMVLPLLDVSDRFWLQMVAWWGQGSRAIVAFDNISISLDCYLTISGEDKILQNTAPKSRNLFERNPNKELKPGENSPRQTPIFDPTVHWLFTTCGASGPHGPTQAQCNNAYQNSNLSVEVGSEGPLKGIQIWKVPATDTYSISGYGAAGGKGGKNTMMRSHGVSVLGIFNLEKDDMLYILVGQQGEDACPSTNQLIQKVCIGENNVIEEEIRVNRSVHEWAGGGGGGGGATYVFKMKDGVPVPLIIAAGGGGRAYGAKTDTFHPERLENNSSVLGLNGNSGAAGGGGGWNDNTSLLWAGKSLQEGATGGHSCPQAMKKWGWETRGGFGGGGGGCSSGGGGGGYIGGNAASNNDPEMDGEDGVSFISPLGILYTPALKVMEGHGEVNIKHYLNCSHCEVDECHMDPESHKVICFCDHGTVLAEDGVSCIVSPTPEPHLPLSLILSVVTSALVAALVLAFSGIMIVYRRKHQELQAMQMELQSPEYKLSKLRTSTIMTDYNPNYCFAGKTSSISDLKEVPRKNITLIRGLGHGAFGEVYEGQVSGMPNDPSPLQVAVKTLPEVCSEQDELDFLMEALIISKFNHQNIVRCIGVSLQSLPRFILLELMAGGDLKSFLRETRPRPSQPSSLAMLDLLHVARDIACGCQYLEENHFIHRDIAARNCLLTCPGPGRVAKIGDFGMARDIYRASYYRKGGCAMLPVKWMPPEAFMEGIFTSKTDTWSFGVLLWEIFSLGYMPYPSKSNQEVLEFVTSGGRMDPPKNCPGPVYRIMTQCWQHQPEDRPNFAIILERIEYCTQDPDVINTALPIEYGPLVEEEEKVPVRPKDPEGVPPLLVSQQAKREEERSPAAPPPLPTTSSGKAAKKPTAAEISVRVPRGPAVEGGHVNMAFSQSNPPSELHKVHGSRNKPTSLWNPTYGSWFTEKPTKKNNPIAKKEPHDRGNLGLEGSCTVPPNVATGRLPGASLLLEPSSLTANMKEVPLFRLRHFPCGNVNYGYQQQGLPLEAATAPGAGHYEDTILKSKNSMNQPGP
- Measurement context: at 1 µM
Observed property: inhibition (%)
Value expressed in %; do not type the unit.

[ask] // query inhibition value for entry `O=C1NC(=O)C(c2ccc(Cl)cc2)=C1Nc1ccc(Cl)c(C(=O)O)c1`
[reply] -1.12

Further cases:
[ask] Fill in: inhibition of `CCCN1CCC=C(c2ccc(Nc3nc(Nc4ccccc4C(N)=O)c4cc[nH]c4n3)c(C)c2)C1` is ___
[reply] 82.1

[ask] Give its inhibition value. Item: `COc1cc2ncn(-c3cc(O[C@@H](C)c4ccccc4Cl)c(C(N)=O)s3)c2cc1OC`
[reply] 6.34

[ask] Given the entry `CS(=O)(=O)CCNCc1ccc(-c2ccc3ncnc(Nc4ccc(OCc5ccccc5)c(Cl)c4)c3c2)o1` , report its measured inhibition.
[reply] 4.89

[ask] Recorded inhibition for `CCn1c(-c2nonc2N)nc2c(N3CCCC3)nccc21` , please?
[reply] -2.28

[ask] Which inhibition reading was recorded for the molecule CC1=C(C(=O)Nc2ccc3[nH]ncc3c2)C(c2ccc(Cl)c(Cl)c2)CC(=O)N1 (stereo unspecified) ?
[reply] 3.88

[ask] Param item = CC1=C(C(=O)Nc2ccc3[nH]ncc3c2)C(c2ccc(F)cc2)NC(=O)N1 (stereo unspecified) ; retrieve measured inhibition.
[reply] 3.89

[ask] Tell me the measured inhibition of `Fc1cccc(COc2ccc(Nc3ncnc4cc(-c5ccc[nH]5)sc34)cc2Cl)c1` , please.
[reply] 2.96

[ask] # input molecule: `CCc1cccc(NC(=O)Nc2ccc(Oc3ccc4nc(NC(=O)OC)[nH]c4c3)cc2)c1` ; wanted: its inhibition
[reply] 3.68

[ask] I have this molecule here, `COc1ccc(-c2nn3ncccc3c2-c2ccnc(Nc3ccc(Cl)c(C(F)(F)F)c3)n2)cc1` , and I need its recorded inhibition.
[reply] 2.05

[ask] Given `CCn1c(-c2nonc2N)nc2ccncc21` , state its recorded inhibition.
[reply] 1.87

[ask] Give its inhibition value. Item: `O=C1NC(=O)C(c2ccccc2Cl)=C1Nc1cccc(O)c1`
[reply] 4.74

[ask] Give its inhibition value. Item: `Nc1ncnc2occ(-c3ccc(NC(=O)Nc4cccc(C(F)(F)F)c4)cc3)c12`
[reply] 21.8

[ask] Please give the measured inhibition for this molecule: `COc1ccc(-c2ccncc2)cc1C(N)=O`
[reply] 6.43

[ask] Value lookup for inhibition; key = `Nc1ncnc2occ(-c3ccc(NC(=O)Nc4cc(C(F)(F)F)cc(C(F)(F)F)c4)cc3)c12`
[reply] 10.8

[ask] Consider the molecule `CCn1c(-c2nonc2N)nc2cncc(C(=O)N3CC[C@H](N)C3)c21` and give its measured inhibition.
[reply] 3.52
